inhibition values for the compounds below.
TARGET_DESC: Isocitrate dehydrogenase [NADP] cytoplasmic (Homo sapiens)
RUN_DESCRIPTION: PubChem AID 624101;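 further: 0% = DMSO and 100% = no enzyme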
ASSAY_SETUP: IDH1 R132H reductase, diaphorase/resazurin fluorescence, 60 min; at 10 µM; active compounds read high
Hit rate of the full screen: of about 70,000 compounds, about 120 (0.17%) were called active. This is one part of a sample in which actives are shown more often than they occur.
Report as a plain number; the unit % is understood.

Worked examples, 5 compounds total:
MOLECULE: O=C(NCC[C@H]1CC[C@H](NC(=O)C2CC2)[C@@H](CO)O1)c1ccc(F)cc1
TARGET_DESC: Isocitrate dehydrogenase [NADP] cytoplasmic (Homo sapiens)
ENDPOINT_VALUE: 0.372

MOLECULE: O=C(N[C@H]1CC[C@@H](CCNS(=O)(=O)c2ccc(F)cc2)O[C@@H]1CO)c1ccccn1
TARGET_DESC: Isocitrate dehydrogenase [NADP] cytoplasmic (Homo sapiens)
ENDPOINT_VALUE: 0.234

MOLECULE: C[C@H](NC(=O)C[C@@H]1CC[C@@H](NC(=O)Cc2ccccn2)[C@@H](CO)O1)c1ccccc1
TARGET_DESC: Isocitrate dehydrogenase [NADP] cytoplasmic (Homo sapiens)
ENDPOINT_VALUE: 0.0085

MOLECULE: O=C(C[C@@H]1C[C@H]2c3cc(NC(=O)C4CCOCC4)ccc3O[C@H]2[C@@H](CO)O1)NCCN1CCCCC1
TARGET_DESC: Isocitrate dehydrogenase [NADP] cytoplasmic (Homo sapiens)
ENDPOINT_VALUE: -0.003

MOLECULE: CCC(=O)Nc1ccc2c(c1)C(=O)N(C)C[C@H](OC)[C@H](C)CN(Cc1ccccc1F)[C@H](C)CO2
TARGET_DESC: Isocitrate dehydrogenase [NADP] cytoplasmic (Homo sapiens)
ENDPOINT_VALUE: 0.217

Shifting focus to the compound that follows.
[Q] // query inhibition value for entry CCC(=O)N(C)C[C@H]1Oc2cc(C#CCC(C)C)ccc2S(=O)(=O)N([C@H](C)CO)C[C@H]1C
[A] -0.831

From: PubChem BioAssay AID624101
